- EXPERIMENTAL_TARGET: hACSL5 (Homo sapiens (Human))
- EXPERIMENT: Human ACSL5 coupled enzyme Amplex Red assay
- Format: biochemical
- MEASUREMENT_CONTEXT: read-out: hACSL5 IC50
- Sequence (Q9ULC5 33-683): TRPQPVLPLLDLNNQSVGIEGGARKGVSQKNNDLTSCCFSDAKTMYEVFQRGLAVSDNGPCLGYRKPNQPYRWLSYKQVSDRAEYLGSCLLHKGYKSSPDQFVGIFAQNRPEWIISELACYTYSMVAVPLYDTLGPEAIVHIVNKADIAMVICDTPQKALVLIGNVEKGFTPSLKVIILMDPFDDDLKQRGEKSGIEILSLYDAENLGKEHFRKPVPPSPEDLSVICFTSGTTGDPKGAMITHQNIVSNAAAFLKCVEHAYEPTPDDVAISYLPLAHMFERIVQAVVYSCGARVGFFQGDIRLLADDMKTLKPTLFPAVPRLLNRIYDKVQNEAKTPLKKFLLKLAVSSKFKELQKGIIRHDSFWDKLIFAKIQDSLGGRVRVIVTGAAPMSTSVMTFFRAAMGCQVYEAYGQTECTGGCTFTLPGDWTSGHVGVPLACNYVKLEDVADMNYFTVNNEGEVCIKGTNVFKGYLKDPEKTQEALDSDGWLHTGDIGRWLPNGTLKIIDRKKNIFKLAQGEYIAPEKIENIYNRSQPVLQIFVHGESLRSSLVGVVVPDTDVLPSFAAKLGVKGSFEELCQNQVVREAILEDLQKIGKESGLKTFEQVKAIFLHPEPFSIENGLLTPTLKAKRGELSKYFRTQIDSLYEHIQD
pIC50: −log10 of the molar value.
ENDPOINT: pIC50

Please review the entries below; each comes with its answer.
>  <TEST_SMILES>
CC[C@@H](Oc1ccc(C(=O)NS(=O)(=O)N2CC3(CN(C)C3)C2)c(F)c1F)c1ccc(OCC2CC2)cn1

>  <ENDPOINT>
pIC50

>  <ASSAY_RESULT>
6.30 to 7.00

$$$$
>  <TEST_SMILES>
CC[C@@H](Oc1ccc(C(=O)NS(=O)(=O)N2CCN(C)CC2)c(F)c1F)c1ccc(Oc2ccccn2)cn1

>  <ENDPOINT>
pIC50

>  <ASSAY_RESULT>
> 7.00

$$$$
>  <TEST_SMILES>
CC[C@@H](Oc1ccc(C(=O)NS(=O)(=O)N2CCN(C)CC2)c(F)c1F)c1ccc(OCC2CC2)cn1

>  <ENDPOINT>
pIC50

>  <ASSAY_RESULT>
> 7.00

$$$$

Pending molecule:
Query :: Annotate the molecule CC[C@@H](Oc1ccc(C(=O)NS(=O)(=O)N2CCC(OC3CCN(C)CC3)CC2)c(F)c1F)c1ccc(Oc2ccccn2)cn1 with its measured pIC50.
Result :: > 7.00

###

- EXPERIMENTAL_TARGET: hACSL5 (Homo sapiens (Human))
- EXPERIMENT: Human ACSL5 coupled enzyme Amplex Red assay
- Type: biochemical
- MEASUREMENT_CONTEXT: read-out: hACSL5 IC50
pIC50: −log10 of the molar value.
ENDPOINT: pIC50

Query :: Annotate the compound CC[C@@H](Oc1ccc(C(=O)NS(=O)(=O)c2ccc(OC3CCN(C)C(C)(C)C3)cc2)c(F)c1F)c1ccc(OCC2CC2)cn1 (stereo partly shown) with its measured pIC50.
Result :: > 7.00

Query :: Annotate the compound CC[C@@H](Oc1ccc(C(=O)NS(=O)(=O)c2ccc(O[C@@H]3C[C@H]4C[C@@H]3CN4)cc2)c(F)c1F)c1ccc(OCC2CC2)cn1 with its measured pIC50.
Result :: > 7.00

Query :: Annotate the compound CC[C@@H](Oc1ccc(C(=O)NS(=O)(=O)N2CCC(OC3CCN(C)CC3)CC2)c(F)c1F)c1ccc(OCC2CC2)cn1 with its measured pIC50.
Result :: > 7.00

Query :: Annotate the compound NCc1ccc(S(=O)(=O)NC(=O)c2ccc(OCC3CCCC3)c(C(F)(F)F)c2)cc1 with its measured pIC50.
Result :: < 6.30

###

- EXPERIMENTAL_TARGET: hACSL5 (Homo sapiens (Human), UniProt Q9ULC5)
- EXPERIMENT: Cell-based assay (CBA) with B12FA in hACSL5-transfected Expi293F / FlpIn TRex293 cells
- MEASUREMENT_CONTEXT: hACSL5-expressing cells
- Sequence (Q9ULC5 whole entry): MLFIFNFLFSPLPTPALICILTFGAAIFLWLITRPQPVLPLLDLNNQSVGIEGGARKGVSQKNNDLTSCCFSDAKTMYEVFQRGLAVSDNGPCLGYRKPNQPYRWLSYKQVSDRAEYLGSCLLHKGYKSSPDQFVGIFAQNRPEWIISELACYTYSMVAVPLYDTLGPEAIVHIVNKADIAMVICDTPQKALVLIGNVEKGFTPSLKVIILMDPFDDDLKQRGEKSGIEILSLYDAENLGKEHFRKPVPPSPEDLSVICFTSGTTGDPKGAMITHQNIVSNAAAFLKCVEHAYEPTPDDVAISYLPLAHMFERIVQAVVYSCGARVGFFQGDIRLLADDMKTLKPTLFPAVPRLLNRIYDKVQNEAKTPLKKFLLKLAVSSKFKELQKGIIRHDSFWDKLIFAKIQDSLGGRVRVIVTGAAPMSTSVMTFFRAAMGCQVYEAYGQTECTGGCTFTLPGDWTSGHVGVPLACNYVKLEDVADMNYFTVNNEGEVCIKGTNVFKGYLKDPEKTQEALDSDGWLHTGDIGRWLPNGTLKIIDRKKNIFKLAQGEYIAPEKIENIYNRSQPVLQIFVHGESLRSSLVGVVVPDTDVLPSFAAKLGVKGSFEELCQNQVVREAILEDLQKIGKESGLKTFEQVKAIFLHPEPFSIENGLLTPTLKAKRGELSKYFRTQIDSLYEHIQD
pIC50: −log10 of the molar value.
ENDPOINT: pIC50

>  <TEST_SMILES>
CC[C@@H](Oc1ccc(C(=O)NS(=O)(=O)N2CC3(CC(OCCN(C)C)C3)C2)c(F)c1F)c1ccc(OCC2CC2)cn1

>  <pIC50>
< 6.30

$$$$

Query :: # return pIC50 for CC[C@@H](Oc1ccc(C(=O)NS(=O)(=O)N2CCN(C3CCCCC3)CC2)c(F)c1F)c1ccc(OCC2CC2)cn1 , test system: hACSL5 (Homo sapiens (Human), UniProt Q9ULC5)
Result :: < 6.30

Query :: # return pIC50 for CC[C@@H](Oc1ccc(C(=O)NS(=O)(=O)N2CCN(C)[C@@H](C)C2)c(F)c1F)c1ccc(OCC2CC2)cn1 , test system: hACSL5 (Homo sapiens (Human), UniProt Q9ULC5)
Result :: > 7.00

Query :: # return pIC50 for CC[C@@H](Oc1ccc(C(=O)NS(=O)(=O)N2CCN(C)CC2(C)C)c(F)c1F)c1ccc(OCC2CC2)cn1 , test system: hACSL5 (Homo sapiens (Human), UniProt Q9ULC5)
Result :: > 7.00

Query :: # return pIC50 for CC[C@@H](Oc1ccc(C(=O)NS(=O)(=O)c2ccc(OCC[C@H]3CCCCN3C)cc2)c(F)c1F)c1ccc(OCC2CC2)cn1 , test system: hACSL5 (Homo sapiens (Human), UniProt Q9ULC5)
Result :: 6.30 to 7.00
